test target: drFabp2 (intestinal fatty acid binding protein) (Danio rerio, UniProt A0A8M1P5F0, K17A/K30A/R29A)
Construct: Full-length mutant, recombinant from E. coli BL21 (DE3), delipidated (apo)
Sequence (A0A8M1P5F0 entry or part of it K17A/R29A/K30A): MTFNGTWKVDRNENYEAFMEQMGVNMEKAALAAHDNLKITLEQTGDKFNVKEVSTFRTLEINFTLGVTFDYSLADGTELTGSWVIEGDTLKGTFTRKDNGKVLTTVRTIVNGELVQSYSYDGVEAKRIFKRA
test: fluorescence titration of purified protein, hyperbolic fit, […]°C
pKd: −log10 of the molar value.

>  <compound structure>
CC1=CC(C)=[N+]2C1=Cc1ccc(CCCCCCCCCCCCCCCC(=O)O)n1[B-]2(F)F

>  <pKd>
6.89

$$$$

----------
test target: drFabp2 (intestinal fatty acid binding protein) (Danio rerio)
Construct: Full-length wild-type, recombinant from E. coli BL21 (DE3), delipidated (apo)
test: fluorescence titration of purified protein, hyperbolic fit, […]°C
property name: Kd (nM)

>  <compound structure>
CC1=CC(C)=[N+]2C1=Cc1ccc(CCCCCCCCCCCCCCCC(=O)O)n1[B-]2(F)F

>  <readout units>
nM

>  <assay result>
160

$$$$
